# maps each entry to its Ratio
test: Ratio of binding affinity at AT1 compared to AT2.
Lab note: record just the number, no unit beside it.

Solved entries (count: 2):
sample.smiles	measure.name	value.observed
CCCCOC(=O)NS(=O)(=O)c1sc(CC(C)C)cc1-c1ccc(Cn2c(CCC)nc3ccc(N(Cc4ccccc4)C(=O)c4ccccc4)cc3c2=O)cc1	Ratio	7.8
CCCCOC(=O)NS(=O)(=O)c1sc(CC(C)C)cc1-c1ccc(Cn2c(CCC)nc3ccc(N(CC)C(C)=O)cc3c2=O)cc1	Ratio	50

Task item: Item under review: "CCCCOC(=O)NS(=O)(=O)c1sc(CC(C)C)cc1-c1ccc(Cn2c(CCC)nc3ccc(N(Cc4ccccc4)C(C)=O)cc3c2=O)cc1" . Reported Ratio?
Reply: 7.1

---

assay: Ratio of binding affinity at AT1 compared to AT2.
measure.name: Ratio
Lab note: record just the number, no unit beside it.

Solved entries (count: 2):
sample.smiles	Ratio
CCCCC(=O)NS(=O)(=O)c1sc(CC(C)C)cc1-c1ccc(Cn2c(CC)nc3c(C)cc(C)nc32)cc1	0.85
CCCCOC(=O)NS(=O)(=O)c1sc(CC(C)C)cc1-c1ccc(Cn2c(CCC)nc3ccc(NC(=O)c4ccccc4)cc3c2=O)cc1	4.2

Here's the next entry for you.
Task item: Item under review: "CCCCOC(=O)NS(=O)(=O)c1sc(CC(C)C)cc1-c1ccc(Cn2c(CCC)nc3ccc(N(CC)C(=O)c4cccs4)cc3c2=O)cc1" . Reported Ratio?
Reply: 86

---

# maps each entry to its Ratio
assay: Ratio of binding affinity at AT1 compared to AT2.

Solved entries (count: 3):
sample.smiles	Ratio
CCc1nc2c(C)cc(C)nc2n1Cc1ccc(-c2cc(CC(C)C)sc2S(=O)(=O)NC(=O)CCC2CCCC2)cc1	> 0.0062
CCOC(=O)NS(=O)(=O)c1sc(CC(C)C)cc1-c1ccc(Cn2c(CC)nc3c(C)cc(C)nc32)cc1	> 0.0035
CCc1nc2c(C)cc(C)nc2n1Cc1ccc(-c2cc(CC(C)C)sc2S(=O)(=O)NC(=O)C(c2ccccc2)c2ccccc2)cc1	> 0.011

Here's the next entry for you.
Task item: Item under review: "CCCCOC(=O)NS(=O)(=O)c1sc(CC(C)C)cc1-c1ccc(Cn2c(CCC)nc3ccc(N(Cc4ccccc4)C(=O)c4cccs4)cc3c2=O)cc1" . Reported Ratio?
Reply: > 0.1

---

test: Ratio of binding affinity at AT1 compared to AT2.
measure.name: Ratio

Solved entries (count: 3):
sample.smiles	Ratio
CCCCCCOC(=O)NS(=O)(=O)c1sc(CC(C)C)cc1-c1ccc(Cn2c(CC)nc3c(C)cc(C)nc32)cc1	> 0.012
CCc1nc2c(C)cc(C)nc2n1Cc1ccc(-c2cc(CC(C)C)sc2S(=O)(=O)NC(=O)OCC(C)C)cc1	> 0.0055
CCCCOC(=O)NS(=O)(=O)c1sc(CC(C)C)cc1-c1ccc(Cn2c(CCC)nc3ccc([N+](=O)[O-])cc3c2=O)cc1	> 75

Here's the next entry for you.
Task item: Item under review: "CCCCOC(=O)NS(=O)(=O)c1sc(CC(C)C)cc1-c1ccc(Cn2c(CCC)nc3ccc(NC(=O)c4cccs4)cc3c2=O)cc1" . Reported Ratio?
Reply: < 0.046
